Recorded values, source patent US20260355225A1.

Assay: Cytotoxicity of D-xylose, MTT assay, absence of viral infection (Example 1)
Type: cell-based
Settings: monkey, vero cells, remdesivir at the time of infection; 2.5 μm; read-out: Viability percentage
propertyMeasured: viability at 2.5 µM (%)

* CCC(CC)COC(=O)[C@H](C)N[P@](=O)(OC[C@H]1O[C@@](C#N)(c2ccc3c(N)ncnn23)[C@H](O)[C@@H]1O)Oc1ccccc1 [Remdesivir, reference compound] | 112

###

Assay: Antiviral assay against HIV-1 NL4-3, percentage of infected cells by immunofluorescence (Example 2)
Settings: human, hela tzmbl cells, Viability Percentages, AZT 5.000 μM, replicate wells
propertyMeasured: viability at 48 h, 5 µM (%)

* Cc1cn([C@H]2C[C@H](N=[N+]=[N-])[C@@H](CO)O2)c(=O)[nH]c1=O [AZT, 3-azido-3-deoxythymidine, reference compound] | 99.1

###

Assay: Cytotoxicity of D-xylose, MTT assay, absence of viral infection (Example 1)
Type: cell-based
Details: monkey, vero cells, remdesivir at the time of infection; 0.16 μm; read-out: Viability percentage
propertyMeasured: viability at […] (%)

* CCC(CC)COC(=O)[C@H](C)N[P@](=O)(OC[C@H]1O[C@@](C#N)(c2ccc3c(N)ncnn23)[C@H](O)[C@@H]1O)Oc1ccccc1 [Remdesivir, reference compound] | 100

###

Experiment: Cytotoxicity of D-xylose, MTT assay, absence of viral infection (Example 1)
Format: cell-based
Details: monkey, vero cells, remdesivir at the time of infection; 10 μm; read-out: Viability percentage
propertyMeasured: viability at 10 µM

• CCC(CC)COC(=O)[C@H](C)N[P@](=O)(OC[C@H]1O[C@@](C#N)(c2ccc3c(N)ncnn23)[C@H](O)[C@@H]1O)Oc1ccccc1 [Remdesivir, reference compound] = 105%

###

Experiment: Cytotoxicity of D-xylose alone or + insulin, MTT assay, absence of viral infection (Example 2)
Details: human, hela tzmbl cells, Viability percentage, D-xylose 3.25 mM
propertyMeasured: viability at 48 h, 3250 µM

• O=C[C@H](O)[C@@H](O)[C@H](O)CO = 94.8%

###

Experiment: Cytotoxicity of D-xylose alone or + insulin, MTT assay, absence of viral infection (Example 2)
Details: human, hela tzmbl cells, Cytotoxicity percentage, AZT 0.007 μM
propertyMeasured: cytotoxicity at 48 h, 0.007 µM (%)

* Cc1cn([C@H]2C[C@H](N=[N+]=[N-])[C@@H](CO)O2)c(=O)[nH]c1=O [AZT, 3-azido-3-deoxythymidine, reference compound] | 5.07

###

Assay: Cytotoxicity of D-xylose alone or + insulin, MTT assay, absence of viral infection (Example 2)
Conditions: human, hela tzmbl cells, Cytotoxicity percentage, D-xylose 3.25 mM
propertyMeasured: cytotoxicity at 48 h, 3250 µM (%)

• O=C[C@H](O)[C@@H](O)[C@H](O)CO = 5.24

###

Experiment: Cytotoxicity of D-xylose, MTT assay, absence of viral infection (Example 1)
Type: cell-based
Details: monkey, vero cells, remdesivir at the time of infection; 1.25 μm; read-out: Viability percentage
propertyMeasured: viability at 1.25 µM (%)

- CCC(CC)COC(=O)[C@H](C)N[P@](=O)(OC[C@H]1O[C@@](C#N)(c2ccc3c(N)ncnn23)[C@H](O)[C@@H]1O)Oc1ccccc1 [Remdesivir, reference compound]: 103

###

Experiment: Cytotoxicity of D-xylose, MTT assay, absence of viral infection (Example 1)
Assay type: cell-based
Settings: monkey, vero cells, remdesivir at the time of infection; 0.63 μm; read-out: Viability percentage
propertyMeasured: viability at 0.63 µM (%)

• CCC(CC)COC(=O)[C@H](C)N[P@](=O)(OC[C@H]1O[C@@](C#N)(c2ccc3c(N)ncnn23)[C@H](O)[C@@H]1O)Oc1ccccc1 [Remdesivir, reference compound] = 102
